- Tested on: Echinochloa crus-galli
- Assay Notes: Pre-emergence herbicidal activity against Echinochloa crus-galli (barnyard grass) assessed as mortality at 6.3 g a.i/10 a
- Format: functional
- Condition Context: Echinochloa crus-galli, pre-emergence
Entries annotated with measured mortality at 63 g/ha

Here is how some molecules turned out for mortality at 63 g/ha.
**Q:** I'd like to know its mortality at 63 g/ha. The molecule in question is COc1cc(OC)nc(Oc2cccc(C)c2C(=O)O)n1
**A:** > 90%

**Q:** Return reported mortality at 63 g/ha; argument: COc1cc(OC)nc(Oc2cccc(Br)c2C(=O)O)n1
**A:** > 90%

**Q:** Need mortality at 63 g/ha, item COC(=O)c1cccc(Oc2nc(OC)cc(OC)n2)c1C(=O)O
**A:** < 5%

***
**Q:** For the molecule CCc1cccc(Oc2nc(OC)cc(OC)n2)c1C(=O)O , what mortality at 63 g/ha is on record?
**A:** > 90%

**Q:** Given COc1cc(OC)nc(Oc2cccc(Cl)c2C(=O)O)n1 , state its recorded mortality at 63 g/ha.
**A:** > 90%

**Q:** # get_value(readout='mortality at 63 g/ha', item= COc1cc(OC)nc(Oc2cccc(F)c2C(=O)O)n1 )
**A:** > 90%

**Q:** Look at this molecule and give its reported mortality at 63 g/ha. COc1cc(OC)nc(Oc2cccc(I)c2C(=O)O)n1
**A:** > 90%

**Q:** Consider the molecule shown here: COc1cc(OC)nc(Oc2cccc(OC)c2C(=O)O)n1 What is its recorded mortality at 63 g/ha?
**A:** > 90%

**Q:** Look up mortality at 63 g/ha: COc1cc(OC)nc(Oc2cccc([N+](=O)[O-])c2C(=O)O)n1
**A:** < 5%

----------
- Assay Notes: Post-emergence phytotoxicity against Glycine max (soybean) assessed as mortality at 1.6 g a.i/10 a applied 11 days after germination as foliar spray
- Type: organism-based
- Condition Context: in vivo, 1.6 g a.i/10 a
Assay Metric: mortality at 264 h

Would you please look over these solved cases?
**Q:** Any idea what mortality at 264 h was measured for COc1cc(OC)nc(Sc2cccc(F)c2C(=O)O)n1 ?
**A:** > 90%

**Q:** Looking for the measured mortality at 264 h of COc1cc(OC)nc(Oc2cccc(Cl)c2C(=O)O)n1 , can you help?
**A:** > 90%

**Q:** Consider the compound CCOc1cccc(Oc2nc(OC)cc(OC)n2)c1C(=O)O and give its measured mortality at 264 h.
**A:** > 90%

**Q:** # input compound: COc1cc(OC)nc(Oc2cccc(SC)c2C(=O)O)n1 ; wanted: its mortality at 264 h
**A:** > 90%

**Q:** Which mortality at 264 h is listed for COc1cc(OC)nc(Oc2cccc(C)c2C(=O)O)n1 ?
**A:** > 90%

**Q:** What value of measured mortality at 264 h is listed for COc1cc(OC)nc(Oc2cccc(I)c2C(=O)O)n1 ?
**A:** > 90%

Continuing:
**Q:** Param item = CCc1cccc(Oc2nc(OC)cc(OC)n2)c1C(=O)O ; retrieve measured mortality at 264 h.
**A:** > 90%

**Q:** # input compound: COc1cc(OC)nc(Oc2cccc(OC(F)F)c2C(=O)O)n1 ; wanted: its mortality at 264 h
**A:** > 90%

**Q:** What value of mortality at 264 h has been reported for the following compound? COc1cc(OC)nc(Oc2cccc(C(F)(F)F)c2C(=O)O)n1
**A:** > 90%

**Q:** Quick one: mortality at 264 h of COc1cc(OC)nc(Oc2cccc(OC)c2C(=O)O)n1 ?
**A:** > 90%

**Q:** Requested field: mortality at 264 h. Item: COc1cc(OC)nc(Oc2cccc(Br)c2C(=O)O)n1
**A:** > 90%

----------
- Tested on: Zea mays
- Assay Notes: Pre-emergence phytotoxicity against Zea mays (maize) assessed as mortality at 6.3 g a.i/10 a
- Format: organism-based
- Condition Context: in vivo, other
Assay Metric: Activity

Consider the following illustrative entries.
**Q:** Look at this compound and give its reported Activity. COc1cc(OC)nc(Sc2cccc(F)c2C(=O)O)n1
**A:** Toxic

**Q:** Returns the measured Activity for the input compound. Input: CCCOc1cccc(Sc2nc(OC)cc(OC)n2)c1C(=O)O
**A:** < 50%

**Q:** Which Activity is listed for COc1cc(OC)nc(Sc2cccc(I)c2C(=O)O)n1 ?
**A:** > 90%

**Q:** Form field: reported Activity of COc1cc(OC)nc(Sc2cccc(Cl)c2C(=O)O)n1
**A:** Toxic

More entries:
**Q:** Give the measured Activity of COc1cc(OC)nc(Oc2cccc(OC(F)F)c2C(=O)O)n1 .
**A:** Toxic

**Q:** // Activity lookup, key: COc1cc(OC)nc(Oc2cccc([N+](=O)[O-])c2C(=O)O)n1
**A:** Non-toxic

**Q:** Any idea what Activity was measured for COc1cc(OC)nc(Sc2cccc(OC(C)C)c2C(=O)O)n1 ?
**A:** < 50%

**Q:** Which measured Activity value corresponds to COc1cc(OC)nc(Sc2cccc(C)c2C(=O)O)n1 ?
**A:** Toxic

**Q:** Requested field: Activity. Item: COc1cc(OC)nc(Sc2cccc(C(F)(F)F)c2C(=O)O)n1
**A:** Toxic

**Q:** Could you share which Activity value was measured for COc1cc(OC)nc(Sc2cccc(Br)c2C(=O)O)n1 ?
**A:** Toxic

**Q:** Request the reported Activity associated with COc1cc(OC)nc(Sc2cccc([N+](=O)[O-])c2C(=O)O)n1
**A:** Toxic

**Q:** Name the reported Activity value associated with the compound COc1cc(OC)nc(Sc2cccc(C(C)=O)c2C(=O)O)n1
**A:** Toxic

**Q:** Tell me the measured Activity of CCSc1cccc(Sc2nc(OC)cc(OC)n2)c1C(=O)O , please.
**A:** Non-toxic

**Q:** Activity for CCOc1cccc(Sc2nc(OC)cc(OC)n2)c1C(=O)O ?
**A:** Toxic

**Q:** # get_value(readout='Activity', item= COc1cc(OC)nc(Sc2cccc(OC)c2C(=O)O)n1 )
**A:** > 90%

**Q:** Form field: reported Activity of COc1cc(OC)nc(Oc2ccccc2C(=O)O)n1
**A:** Toxic

----------
Entries and their mortality at 264 h values follow.
- Assay Notes: Post-emergence phytotoxicity against Zea mays (maize) assessed as mortality at 1.6 g a.i/10 a applied 11 days after germination as foliar spray
- Assay type: organism-based
- Condition Context: in vivo, 1.6 g a.i/10 a

Check out these entries, answers already filled in.
**Q:** Recorded mortality at 264 h of CCOc1cccc(Oc2nc(OC)cc(OC)n2)c1C(=O)O , please.
**A:** > 90%

**Q:** Fill in the blank: the reported mortality at 264 h of COc1cc(OC)nc(Oc2cccc(C(F)(F)F)c2C(=O)O)n1 is ____.
**A:** > 90%

Now consider a different molecule.
**Q:** Quick one: mortality at 264 h for COc1cc(OC)nc(Oc2cccc(C)c2C(=O)O)n1 ?
**A:** > 90%

----------
- Assay Notes: Post-emergence phytotoxicity against Gossypium hirsutum (cotton) assessed as mortality at 6.3 g a.i/10 a applied 11 days after germination as foliar spray
- Type: organism-based
- Condition Context: in vivo, 6.3 g a.i/10 a
Assay Metric: mortality at 264 h

Reference set, count: 3
**Q:** Quick one: mortality at 264 h of COc1cc(OC)nc(Sc2cccc(C(F)(F)F)c2C(=O)O)n1 ?
**A:** < 5%

**Q:** Suppose we examine the compound COc1cc(OC)nc(Sc2cccc(SC)c2C(=O)O)n1 ; what mortality at 264 h value has been reported?
**A:** > 90%

**Q:** I am curious: what mortality at 264 h value has been reported for COc1cc(OC)nc(Sc2cccc(I)c2C(=O)O)n1 ?
**A:** < 5%

Next:
**Q:** Consider the compound COc1cc(OC)nc(Sc2cccc(OC(C)C)c2C(=O)O)n1 and give its measured mortality at 264 h.
**A:** > 90%

**Q:** Reported mortality at 264 h for COc1cc(OC)nc(Oc2cccc(OC)c2C(=O)O)n1 : what is it?
**A:** > 90%

**Q:** Form field: reported mortality at 264 h of COc1cc(OC)nc(Sc2cccc(Br)c2C(=O)O)n1
**A:** < 5%

**Q:** What does the record list as mortality at 264 h for COc1cc(OC)nc(Sc2cccc(Cl)c2C(=O)O)n1 ?
**A:** < 5%

----------
- System: Gossypium hirsutum
- Assay Notes: Post-emergence phytotoxicity against Gossypium hirsutum (cotton) assessed as mortality at 1.6 g a.i/10 a applied 11 days after germination as foliar spray
- Assay type: organism-based
- Condition Context: in vivo, other, 264 h
Assay Metric: Activity

Examples with their reported Activity follow.
**Q:** Hello, I am looking for reported Activity with Gossypium hirsutum for COc1cc(OC)nc(Sc2cccc(SC)c2C(=O)O)n1 . Could you help?
**A:** Non-toxic

**Q:** // map COC(=O)c1cccc(Oc2nc(OC)cc(OC)n2)c1C(=O)O to recorded Activity (system: Gossypium hirsutum)
**A:** Toxic

**Q:** Give Gossypium hirsutum Activity for COc1cc(OC)nc(Sc2cccc(C)c2C(=O)O)n1
**A:** Non-toxic

**Q:** Lab request: please report Activity under test system Gossypium hirsutum for COc1cc(OC)nc(Oc2cccc(Cl)c2C(=O)O)n1
**A:** Toxic

**Q:** So what Activity did COc1cc(OC)nc(Oc2cccc(OC(F)F)c2C(=O)O)n1 get with Gossypium hirsutum?
**A:** Toxic

Okay, now this compound:
**Q:** Query the reported Activity for Gossypium hirsutum; item: CCOc1cccc(Sc2nc(OC)cc(OC)n2)c1C(=O)O
**A:** Toxic
